B1: CDC25B (parent)
chain: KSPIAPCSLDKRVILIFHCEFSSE

variants of: B1; assay: protein stability index of a GFP-peptide fusion (GPS, HEK-293T) (PSI 1-6); higher = more stable; conditions: c terminus: a fixed tail appended;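 note: lentivirally expressed fusions sorted by FACS into six bins by GFP to DsRed ratio, PSI derived from sequencing read proportions per bin multiplied by bin number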
Decide by protein stability index: equal to or exceeding 3 means fulfilled, less means not fulfilled.

| variant-identifier | assigned-category |
| --- | --- |
| D10V | not fulfilled |
| C19S | fulfilled |
| E20A | not fulfilled |
| C7K | not fulfilled |
| D10Y | not fulfilled |
| A5D | not fulfilled |
| S22C | not fulfilled |
| I4D | not fulfilled |
| L15H | not fulfilled |
| C7L | fulfilled |
| S2A | not fulfilled |
| R12G | not fulfilled |
| F21I | not fulfilled |
| P6Y | fulfilled |
| D10M | not fulfilled |
| E24K | fulfilled |
| P3T | not fulfilled |
| I4K | fulfilled |
| R12S | fulfilled |
| S22M | not fulfilled |
| I14G | not fulfilled |
| F17S | not fulfilled |
| E20S | fulfilled |
| S8F | not fulfilled |
| A5N | not fulfilled |
| K11C | not fulfilled |
| S8T | fulfilled |
| E20D | not fulfilled |
| F21K | not fulfilled |
| I16V | not fulfilled |
| L9A | not fulfilled |
| L15A | not fulfilled |
| F17K | not fulfilled |
| I14D | not fulfilled |

The values you see were collected from the supplement of paper PMC10567573.
